- Tested on: THP-1 human acute monocytic leukemia cells
- PROTOCOL DETAILS: Cytokine production by THP-1 cells (ELISA)
- Format: cell-based
- CONDITION SET: THP-1, 1×10^6 cells, 100 μg/ml, 48 h; p70 complex and free p40
- Procedure: Unless stated otherwise, 1×10^6 cells were incubated with 100 μg/ml of each of the sequences tested for 48 h at 37° C. in 5% CO2. Production of cytokines IL-6, IL-10, IL-12, IL-1beta and TNF-alpha was determined in pg/ml in 100 μl of culture supernatant using the appropriate commercial ELISA (BioSource, Camarillo Calif.). […] Results are expressed as the “fold” (×) increase in cytokine production by treated cells compared to control cells. […]
OUTCOME MEASURE: ↑ IL-12 (fold increase treated vs control cells) (x)

[
  {
    "RESIDUE STRING": "GGCCGG [SEQ ID NO:43]",
    "NUMERIC RESULT": 3.1
  },
  {
    "RESIDUE STRING": "TGGTTG [SEQ ID NO:29]",
    "NUMERIC RESULT": 4.1
  },
  {
    "RESIDUE STRING": "GAGTGA [SEQ ID NO:32]",
    "NUMERIC RESULT": 1.8
  },
  {
    "RESIDUE STRING": "GGGTTT [SEQ ID NO:40]",
    "NUMERIC RESULT": "−1.2"
  },
  {
    "RESIDUE STRING": "GGTGGG [SEQ ID NO:24 phosphorothioate]",
    "NUMERIC RESULT": "−0.1"
  },
  {
    "RESIDUE STRING": "GGGGGG [SEQ ID NO:44]",
    "NUMERIC RESULT": 0.0
  },
  {
    "RESIDUE STRING": "GTGTGT [SEQ ID NO:10]",
    "NUMERIC RESULT": 2.2
  },
  {
    "RESIDUE STRING": "TTGTTT [SEQ ID NO:26 phosphorothioate]",
    "NUMERIC RESULT": "−0.1"
  },
  {
    "RESIDUE STRING": "TTTGTT [SEQ ID NO:23 phosphorothioate] (phosphorothioate backbone)",
    "NUMERIC RESULT": 0.1
  },
  {
    "RESIDUE STRING": "GGGCGG (unmodified DNA) [SEQ ID NO:46]",
    "NUMERIC RESULT": 2.3
  },
  {
    "RESIDUE STRING": "GGGTCC [SEQ ID NO:35]",
    "NUMERIC RESULT": 1.9
  },
  {
    "RESIDUE STRING": "ACGAGACCACCATCGTCGAGGGCGCCGGTGACACCGACGCCATCG (unmodified DNA) [BCG A-6, reference compound]",
    "NUMERIC RESULT": 2.1
  },
  {
    "RESIDUE STRING": "TCGTTC [SEQ ID NO:37]",
    "NUMERIC RESULT": 2.2
  }
]

###

- Test system: caspase 3
- PROTOCOL DETAILS: Caspase 3 activation, colorimetric (p-nitroanilide peptide cleavage)
- Assay type: cell-based, human
- CONDITION SET: Jurkat, 72 h, 100 μg/ml
OUTCOME MEASURE: caspase 3 activity greater than in control cells

[
  {
    "RESIDUE STRING": "GGGTGG [SEQ ID NO:25]",
    "TEST SYSTEM": "caspase 3",
    "RESULT": "323%"
  },
  {
    "RESIDUE STRING": "GTGTGTTTGGTGGTTTTGTTTGTTGTTTTTTTG (DNA, backbone not given here) [SEQ ID NO:66]",
    "TEST SYSTEM": "caspase 3",
    "RESULT": "105%"
  },
  {
    "RESIDUE STRING": "GGTTTTGTTTG (unmodified DNA) [SEQ ID NO:82]",
    "TEST SYSTEM": "caspase 3",
    "RESULT": "100%"
  },
  {
    "RESIDUE STRING": "TTGTTTTTTTTG (unmodified DNA) [SEQ ID NO:83]",
    "TEST SYSTEM": "caspase 3",
    "RESULT": "60%"
  },
  {
    "RESIDUE STRING": "GTGTGTTTGGT (unmodified DNA) [SEQ ID NO:81]",
    "TEST SYSTEM": "caspase 3",
    "RESULT": "77%"
  }
]

###

- System: rhesus monkey PBMCs
- PROTOCOL DETAILS: Cytokine production by rhesus monkey PBMC (ELISA)
- Format: cell-based
- CONDITION SET: PBMC of 4 healthy rhesus monkeys, 100 μg/ml, 48 h
TNF-alpha fold increase: mean +/− SD by entry:
OUTCOME MEASURE: TNF-alpha fold increase: mean +/− SD

[
  {
    "RESIDUE STRING": "GGGAGG (unmodified DNA) [SEQ ID NO:45]",
    "OUTCOME MEASURE": "TNF-alpha fold increase: mean +/− SD",
    "RESULT": "16.7 +/− 4.6 fold increase"
  },
  {
    "RESIDUE STRING": "GTGTGT [SEQ ID NO:10]",
    "OUTCOME MEASURE": "TNF-alpha fold increase: mean +/− SD",
    "RESULT": "16.1 +/− 4.2 fold increase"
  },
  {
    "RESIDUE STRING": "AAGTAA [SEQ ID NO:27]",
    "OUTCOME MEASURE": "TNF-alpha fold increase: mean +/− SD",
    "RESULT": "6.0 +/− 5.0 fold increase"
  }
]

###

- Test system: Jurkat human leukemia T cells
- PROTOCOL DETAILS: Apoptosis by phosphatidylserine/annexin V-FITC flow cytometry
- Format: cell-based
- CONDITION SET: 50 μM sequence
% of cells in apoptosis (positive for PS/A-V staining) by entry:
OUTCOME MEASURE: % of cells in apoptosis (positive for PS/A-V staining) (%)

[
  {
    "SUBSTANCE": "CCGTCC [SEQ ID NO:28]",
    "UNITS SYMBOL": "%",
    "NUMERIC RESULT": 6
  },
  {
    "SUBSTANCE": "TTGTTT [SEQ ID NO:26]",
    "UNITS SYMBOL": "%",
    "NUMERIC RESULT": 14
  },
  {
    "SUBSTANCE": "AAGTAA [SEQ ID NO:27]",
    "UNITS SYMBOL": "%",
    "NUMERIC RESULT": 20
  },
  {
    "SUBSTANCE": "GGGAGG (unmodified DNA) [SEQ ID NO:45]",
    "UNITS SYMBOL": "%",
    "NUMERIC RESULT": 27
  },
  {
    "SUBSTANCE": "GGGGGG [SEQ ID NO:44]",
    "UNITS SYMBOL": "%",
    "NUMERIC RESULT": 5
  },
  {
    "SUBSTANCE": "GGGGTGG (unmodified DNA) [SEQ ID NO:62]",
    "UNITS SYMBOL": "%",
    "NUMERIC RESULT": 30
  },
  {
    "SUBSTANCE": "GGGTGG [SEQ ID NO:25]",
    "UNITS SYMBOL": "%",
    "NUMERIC RESULT": 27
  },
  {
    "SUBSTANCE": "GGGCGG (unmodified DNA) [SEQ ID NO:46]",
    "UNITS SYMBOL": "%",
    "NUMERIC RESULT": 16
  },
  {
    "SUBSTANCE": "GG(GG)1GGG (DNA GGGTGGG; unmodified DNA)",
    "UNITS SYMBOL": "%",
    "NUMERIC RESULT": 12
  },
  {
    "SUBSTANCE": "GTGTGT [SEQ ID NO:10]",
    "UNITS SYMBOL": "%",
    "NUMERIC RESULT": 33
  }
]

###

- Test system: MCF-7 human breast cancer cells
- PROTOCOL DETAILS: Inhibition of MCF-7 cell proliferation (MTT)
- Assay type: cell-based
- CONDITION SET: 100 μg/ml, 48 h, 5×10^5 cells/ml
% INHIBITION of MCF-7 human breast cancer cell proliferation by entry:
OUTCOME MEASURE: % INHIBITION of MCF-7 human breast cancer cell proliferation (%)

[
  {
    "SUBSTANCE": "TGTGTG [SEQ ID NO:9]",
    "NUMERIC RESULT": 6
  },
  {
    "SUBSTANCE": "TTGTTT [SEQ ID NO:26]",
    "NUMERIC RESULT": 20
  },
  {
    "SUBSTANCE": "TTTGTT [SEQ ID NO:23 phosphorothioate] (phosphorothioate backbone)",
    "NUMERIC RESULT": 8
  },
  {
    "SUBSTANCE": "GoGoGsToGoGo",
    "NUMERIC RESULT": 12
  }
]
